- procedure text: physchem
- Assay type: physicochemical
- condition label: 37° C., 5 mM solution in phosphate buffer, 400 MHz NMR, from titration curve
pKa values by entry
Please state the value as a number alone, without comment.

Some solved entries appear below for comparison.
| compound | endpoint name | value measured |
| --- | --- | --- |
| CCOP(=O)(OCC)C1(C)CCC(C)(P(=O)(OCC)OCC)N1 (stereo not drawn) | pKa | 2.45 |
| CCOP(=O)(OCC)C1(P(=O)(OCC)OCC)CCCN1 | pKa | 3.47 |

Now for another entry.
Request: Provide only the value of recorded pKa for "CC(C)OP(=O)(OC(C)C)C1(P(=O)(OC(C)C)OC(C)C)CCCN1"
Result: 3.9

Where these numbers come from: patent US6528656B1
